tested-system: FPTase (K-Ras substrate) (UniProt P29702+P49355)
protocol: in vitro FTase Inhibition Assay, K-Ras as substrate for farnesylation
measurement-conditions: K-Ras used as substrate for farnesylation
readout-type: IC50

compound	readout-type	result
COc1ccc(S(=O)(=O)C2(CCCC#Cc3cc(NC(=O)OCC(C)C)ccc3C)SC(=O)NC2=O)cc1 (stereo not shown)	IC50	32 to 56 nM
O=C1NC(=O)C(CCCC#Cc2ccc(Cl)cc2)(S(=O)(=O)c2ccc3ccccc3c2)S1 (stereo not shown)	IC50	620 to 700 nM
COc1ccc(S(=O)(=O)C2(CCCC#Cc3cc(C(=O)NC(C)(C)C)ccc3C)SC(=O)NC2=O)cc1 (stereo not shown)	IC50	100 to 230 nM
O=C1NC(=O)C(CCCC#Cc2ccc(Cl)cc2)(S(=O)(=O)c2ccc([N+](=O)[O-])cc2)S1 (stereo not shown)	IC50	7000 nM

---

tested-system: FPTase (K-Ras substrate) (UniProt P29702+P49355)
protocol: in vitro FTase Inhibition Assay, K-Ras as substrate for farnesylation
measurement-conditions: K-Ras used as substrate for farnesylation

compound	IC50
COc1ccc(S(=O)(=O)C2(CCCC#Cc3cccc(N)c3)SC(=O)NC2=O)cc1 (stereo not drawn) [Example 220]	3000 nM
O=C1NC(=O)C(CCCC#Cc2ccc(Cl)cc2)(S(=O)(=O)c2ccc(OCc3ccccc3)cc2)S1 (stereo not drawn) [Example 111]	300 to 550 nM
O=C1NC(=O)C(CCCC#Cc2ccc(Cl)cc2)(S(=O)(=O)c2cccc3ccccc23)S1 (stereo not drawn) [Example 113]	750 to 800 nM
COc1ccc(S(=O)(=O)C2(CCCC#Cc3cc(F)cc([N+](=O)[O-])c3)SC(=O)NC2=O)cc1 (stereo not drawn) [Example 133]	54 to 1000 nM
COc1ccc(S(=O)(=O)C2(CCCC#Cc3cc(NC(=O)OCc4ccc([N+](=O)[O-])cc4)ccc3C)SC(=O)N(C(=O)OCc3ccc([N+](=O)[O-])cc3)C2=O)cc1 (stereo not drawn) [Example 227]	210 to 400 nM
COc1ccc(S(=O)(=O)C2(CCCC#Cc3ccc(C)cc3C)SC(=O)NC2=O)cc1 (stereo not drawn) [Example 136]	1000 to 1900 nM
COc1ccc(S(=O)(=O)C2(CCCC#Cc3cc(NC(=O)OCC(C)C)ccc3C)SC(=O)N(C(=O)OCC(C)C)C2=O)cc1 (stereo not drawn) [Example 232]	40 to 640 nM
COc1ccc(S(=O)(=O)C2(CCCC#Cc3cc(C)ccc3C)SC(=O)NC2=O)cc1 (stereo not drawn) [Example 135]	1900 to 2100 nM
Cc1ccc(C)c(C#CCCCC2(S(=O)(=O)c3ccc(I)cc3)SC(=O)NC2=O)c1 (stereo not drawn) [Example 134]	430 to 680 nM
COc1ccc(S(=O)(=O)C2(CCCC#Cc3cc(NC(=O)OCc4ccccc4)ccc3C)SC(=O)NC2=O)cc1 (stereo not drawn) [Example 175]	53 to 520 nM
COc1ccc(S(=O)(=O)C2(CCCC#Cc3cc(NC(=O)OCc4ccccc4)ccc3C)SC(=O)N(C(=O)OCc3ccccc3)C2=O)cc1 (stereo not drawn) [Example 226]	100 to 3200 nM
COc1ccc(S(=O)(=O)C2(CCCC#Cc3ccc([N+](=O)[O-])cc3)SC(=O)NC2=O)cc1 (stereo not drawn) [Example 121]	1600 nM
Cc1ccc(S(=O)(=O)C2(CC#Cc3ccc(Oc4ccccc4)cc3)SC(=O)NC2=O)cc1 (stereo not drawn) [Example 170]	4700 nM
Cc1ccc([N+](=O)[O-])cc1C#CCCCC1(S(=O)(=O)c2cccc3ccccc23)SC(=O)NC1=O (stereo not drawn) [Example 126]	1700 nM
COc1ccc(S(=O)(=O)C2(CCCC#Cc3cc(NC(=O)OC(C)C)ccc3C)SC(=O)NC2=O)cc1 (stereo not drawn) [Example 179]	5 to 70 nM

Data credit: patent US6784184B2
